- Tested on: HT-29
- assay.text: NCI tumour cell line growth inhibition, 48 h
Activity calls are given as the source filed them. Rule as the data show it: active = GI50 up to about 1.1 µM and inactive = higher.
endpoint.label: GI50

// known answers, use as guide
smiles_input=c1ccc(P(=C2c3ccccc3-c3ccccc32)(c2ccccc2)c2ccccc2)cc1 endpoint_label=GI50 value_observed="2.99 µM (inactive)"
smiles_input=Clc1cccc(/C=N/C23CC4CC(CC(C4)C2)C3)c1Cl endpoint_label=GI50 value_observed="> 10 µM (inactive)"
smiles_input=Cc1nn(-c2ccccc2)c2nc3c(c(C)nn3-c3ccccc3)c(-c3ccc(C(F)(F)F)cc3)c12 endpoint_label=GI50 value_observed="52.8 µM (inactive)"
smiles_input=NC(=O)C#CC#CC#CCO endpoint_label=GI50 value_observed="2.39 µM (inactive)"

Next up:
Problem: Fill in the blank: the reported GI50 of "Cn1c(=O)c2c(ncn2CCCCOc2ccc3c(c2)[n+]([O-])nc(N)[n+]3[O-])n(C)c1=O" is ____.
Solution: 43.2 µM (inactive)

----------
- Tested on: LOX IMVI
- assay.text: NCI tumour cell line growth inhibition, 48 h
Calls of active or inactive are those of the source. No stated cut-off is given here; in the data, active = GI50 up to about 1.1 µM and inactive = higher.
Kindly supply the reported GI50 values for the records listed here.

molecule="CCOC(=O)C(Cl)(NC(=O)NC(Cl)(C(=O)OCC)C(F)(F)F)C(F)(F)F (stereo not drawn)" target_entity="LOX IMVI" value_observed="> 100 µM (inactive)"
molecule=CCOC(=O)CCCNC(=O)CCCCC(=O)N(C)C target_entity="LOX IMVI" value_observed="> 100 µM (inactive)"
molecule="O=C1/C(=N\\O)C2CCC1C2 (stereo not drawn)" target_entity="LOX IMVI" value_observed="> 100 µM (inactive)"
molecule=CN1CCN(/C(N)=C(\C#N)C(=O)Nc2ccc(Cl)cc2)CC1 target_entity="LOX IMVI" value_observed="47.9 µM (inactive)"
molecule=NC(=O)C#CC#CC#CCO target_entity="LOX IMVI" value_observed="2.09 µM (inactive)"

# batch: return GI50 for each of the 4 molecules below
1. CCN(CC)CCCNc1ccc2nc(C)n3c4ccc(O)cc4c(=O)c1c23
2. C(/COc1cccnc1)=N\NC1=NCCN1
3. C=CSCCC(N)C(=O)O (stereo not drawn)
4. CCOP(=O)(CC1CC(O)(CNc2cc(Cl)nc(N)n2)C1)OCC (stereo not drawn)

Solution:
["1.14 µM (inactive)", "> 100 µM (inactive)", "> 100 µM (inactive)", "> 100 µM (inactive)"]

# batch: return GI50 for each of the 4 molecules below
1. Cc1cc(Cl)ccc1C1OC(=O)c2c1ccc1ccccc21 (stereo not drawn)
2. N#C/C=C(/NC(=O)Nc1ccccc1)N1CCCC1
3. O=CN/C=C/c1ccc(O)c(O)c1
4. COc1ccc(-c2cn3ccsc3n2)cc1

Solution:
> 100 µM (inactive)
> 66.7 µM (inactive)
> 100 µM (inactive)
36.2 µM (inactive)

----------
Kindly supply the reported GI50 values for the records listed here.
- Test system: OVCAR-5
- assay.text: NCI tumour cell line growth inhibition, 48 h
Calls of active or inactive are those of the source. Rule as the data show it: active = GI50 up to about 1.1 µM and inactive = higher.

// known answers, use as guide
smiles_input=O=C(CN1CCN(C(=O)OCc2ccccc2)CCN(CC(=O)N2CCCCC2)CCN(C(=O)OCc2ccccc2)CC1)N1CCCCC1 value_observed="19.6 µM (inactive)"
smiles_input=COc1c2cc(C(C)(C)C)cc1CSCc1cc(C(C)(C)C)cc(c1OC)CCCCC2 value_observed="> 50 µM (inactive)"

Next up:
Problem: Fill in the blank: the reported GI50 of "O=c1oc2c3ccc4ccccc4c3n(Cc3nc4ccccc4[nH]3)c2c2ccccc12" is ____.
Solution: > 36.2 µM (inactive)
